# testDescription: Comparative pharmacokinetic study, single-dose administration in minipigs
# Format: in vivo
# particulars: male, Göttingen, minipig, plasma, intravenous, 5 mg/kg
metricName: half-life (h)

> print(dat)
                                 testsmiles  unitdescriptor  val
1  [2H]C1([2H])OC([2H])(C([2H])([2H])n2cnc3c2c(=O)n(C)c(=O)n3C)OC1([2H])[2H]               h  6.5
2  [2H]C1([2H])OC(Cn2cnc3c2c(=O)n(C)c(=O)n3C)OC1([2H])[2H]               h  6.2
3         Cn1c(=O)c2c(ncn2CC2OCCO2)n(C)c1=O               h  6.2
